All figures here come from patent US20140350081A1.

Measured mortality at 400 µM of individual entries
system: Ae. aegypti L3 larvae; experiment: whole plant or invertebrate; details: Aedes aegypti, 72 h, read-out: Cumulative % Mortality (72 hrs), 400 uM, L3 larvae
The reply should be a number in %, with the unit left off.

Examples with answers:
| compound | target_of_assay | mortality at 400 µM (%) |
| --- | --- | --- |
| CN1CCN(CC(=O)N2c3ccccc3C(=O)Nc3cccnc32)CC1 [Pirenzepine] | Ae. aegypti L3 larvae | 0 |
| CC1(C)C(=O)N(CCN2CCC(C(=O)c3ccc(F)cc3)CC2)c2ccccc21.Cl [LY310762] | Ae. aegypti L3 larvae | 10 |
| CCNC(=O)N1CCN(CCCC(c2ccc(F)cc2)c2ccc(F)cc2)CC1 [Amperozide] | Ae. aegypti L3 larvae | 100 |
| O=C(c1ccc(F)cc1)C1CCN(CCn2c(=O)[nH]c3ccccc3c2=O)CC1 [Ketanserin] | Ae. aegypti L3 larvae | 0 |
| CSc1ccc2c(c1)C(N1CCN(C)CC1)Cc1ccccc1S2 (stereo not shown) [Methiothepin] | Ae. aegypti L3 larvae | 100 |
| CN(C)CCCN1c2ccccc2Sc2ccc(Cl)cc21 [Chlorpromazine] | Ae. aegypti L3 larvae | 100 |

Problem: Identify mortality at 400 µM associated with the compound OCCN1CCN(CC/C=C2/c3ccccc3Sc3ccc(C(F)(F)F)cc32)CC1 [cis-(Z)-Flupenthixol]
Result: 100

Problem: Identify mortality at 400 µM associated with the compound CN1CC2c3ccccc3Oc3ccc(Cl)cc3C2C1 (stereo not shown) [Asenapine]
Result: 100

Problem: Identify mortality at 400 µM associated with the compound CN1CCN(C2=Nc3ccccc3Oc3ccc(Cl)cc32)CC1 [Loxapine]
Result: 100

Problem: Identify mortality at 400 µM associated with the compound CN1C2CCC1CC(OC(c1ccccc1)c1ccccc1)C2 (stereo not shown) [Benztropine]
Result: 100

====

Measured pIC50 of individual entries
target: AaDOP2 (Aedes aegypti, UniProt H6D5H2); assay: HTRF cAMP accumulation concentration response assay (Cisbio Dynamic 2); format: cell-based; conditions: in vitro Concentration Response Curve assay, n = 2, relative to control antagonist Amitriptyline; read-out: Avg IC50
Sequence (H6D5H2 entry or part of it): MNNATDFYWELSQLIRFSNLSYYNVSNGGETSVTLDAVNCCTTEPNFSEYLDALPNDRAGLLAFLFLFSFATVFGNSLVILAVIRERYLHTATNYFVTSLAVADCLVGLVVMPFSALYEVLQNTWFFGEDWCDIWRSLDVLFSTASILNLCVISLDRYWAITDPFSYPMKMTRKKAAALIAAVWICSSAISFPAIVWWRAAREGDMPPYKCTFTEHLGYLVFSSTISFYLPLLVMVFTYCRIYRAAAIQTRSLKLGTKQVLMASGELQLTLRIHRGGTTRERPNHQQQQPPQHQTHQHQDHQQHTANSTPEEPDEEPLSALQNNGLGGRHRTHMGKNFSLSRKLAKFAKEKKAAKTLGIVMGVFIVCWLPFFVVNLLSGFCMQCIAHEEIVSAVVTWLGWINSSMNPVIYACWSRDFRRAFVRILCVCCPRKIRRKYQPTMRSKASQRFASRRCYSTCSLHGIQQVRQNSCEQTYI
To interpret pIC50, take it as minus log10 of a concentration measured in moles per litre.

Examples with answers:
| molecule | pIC50 |
| --- | --- |
| Cc1ccc(Nc2nc(N3CCN(C)CC3)nc3c2cnn3-c2ccccc2)cc1 | 5.34 |
| O=C(NCC1CCCCN1)c1cc(OCC(F)(F)F)ccc1OCC(F)(F)F (centres unmarked) [Flecainide Acetate] | 6.50 |
| COc1ccc(C(=O)Nc2nc(-c3ccc4c(c3)OCCO4)cs2)cc1OC | 5.08 |
| c1ccc(CCNc2nc(N3CCNCC3)nc3ccccc23)cc1 | 5.32 |
| Cc1cc(N2CCCC2)nc(Nc2ccc(NC(=O)c3ccccc3Br)cc2)n1 | 4.71 |
| CN1CCN(c2nc(Nc3cccc(F)c3)c3cnn(-c4ccccc4)c3n2)CC1 | 6.23 |
| CN1CCN(c2nc(Nc3ccc4c(c3)OCO4)c3cnn(-c4ccccc4)c3n2)CC1 | 5.78 |
| CCN(CC)CCNc1nc(Nc2ccc(Cl)cc2)c2cnn(-c3ccccc3)c2n1 | 5.29 |

Problem: Identify pIC50 associated with the molecule Cc1cc(N2CCCC2)nc(Nc2ccc(NC(=O)Cc3ccccc3)cc2)n1
Result: 5.03

Problem: Identify pIC50 associated with the molecule CCC(CC)c1nc(Nc2ccc(C(=O)OC)cc2)c2ccccc2n1
Result: 5.05

Problem: Identify pIC50 associated with the molecule COc1ccc(Nc2nc(N3CCN(C)CC3)nc3c2cnn3-c2ccccc2)cc1
Result: 5.16

Problem: Identify pIC50 associated with the molecule CCN1CCN(c2nc(Nc3ccc(F)cc3)c3cnn(-c4ccccc4)c3n2)CC1
Result: 5.34
